All figures here come from patent US20240043505A1.

Target: SARS-CoV-2 Munich strain spike glycoprotein on authentic virus (SARS-CoV-2)
Assay: cell-based or functional assay
Reported Authentic virus PRNT IC50 is given for each of the following binders.
experimental endpoint: Authentic virus PRNT IC50

{"binder": "Nb17 (VHH) VHH: HVQLVESGGGLVQAGGSLRLSCAASGSIFSSNAMSWYRQAPGKQRELVASITSGGNADYADSVKGRFTISRDKNTVYPEMSSLKPADTAVYYCHAVGQEASAYAPRAYWGQGTQVTVSS", "reading": "1.5 nM"}
{"binder": "Nb9 (VHH) VHH: HVQLVESGGGLVQTGGSLRLSCAFSGYTFSTFPTAWFRQAPGKEREFVAGIRWNGGSRDYTEYADFVKGRFTISRDNAKNMIYLQMISLKPEDTALYYCAASHGVVDGTSVNGYRYWGQGTQVTVSS", "reading": "1.72 nM"}
{"binder": "Nb105 (VHH) VHH: HVQLVESGGGLVQAGGSLRLSCAVSGRTFSTYGMAWFRQAPGKERDFVATITRSGETTLYADSVKGRFTISRDNAKNTVYLQMNSLKIEDTAVYYCAVRRDSSWGYSRDLFEYDYWGQGTQVTVSS", "reading": "5.07 nM"}
{"binder": "Nb11 (VHH) VHH: HVQLVESGGGLVQAGGSLRLSCAVSGASAERVGWFRRAPGKEREFVAAIGANGGSTNYLDSVKGRFTISRDNAKNTVYLQMNSLKPQDTAVYYCAARNLETFDYTYWGRGTQVTVSS", "reading": "0.8 nM"}
{"binder": "Nb95 (VHH) VHH: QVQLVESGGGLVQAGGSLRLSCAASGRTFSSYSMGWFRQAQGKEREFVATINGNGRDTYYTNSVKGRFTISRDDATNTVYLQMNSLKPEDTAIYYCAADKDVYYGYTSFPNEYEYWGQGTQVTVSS", "reading": "5.11 nM"}
{"binder": "Nb64 (VHH) VHH: QVQLVESGGGLVQAGGSLRLSCAVSGRTFSIAGMGWFRQAPGKDREFLGGITWNDGTTWYADSVKGRFTISRDNAKNMLSLRMNSLKPEDTAVYYCAAGPRLGSTPRAYDYWGQGTQVTVSS", "reading": "4.88 nM"}
{"binder": "Nb21 (VHH) VHH: QVQLVESGGGLVQAGGSLRLSCAVSGLGAHRVGWFRRAPGKEREFVAAIGANGGNTNYLDSVKGRFTISRDNAKNTIYLQMNSLKPQDTAVYYCAARDIETAEYTYWGQGTQVTVSS", "reading": "0.022 nM"}
{"binder": "Nb89 (VHH) VHH: HVQLVESGGGLVQAGGSLRLSCAASGGTFTTFRMAWFRQTPGKEREFVAASSWGFVNYADPVKGRFTISRDNAKNTVYLEMSSLKTEDTAVYYCAARNPGTGQYDYWGQGTQVTVSS", "reading": "0.154 nM"}
{"binder": "Nb78 (VHH) VHH: QVQLVESGGGLVQAGGSLRLSCAISGASANRVGWFRRAPGKEREFVAAIGASGGMTNYLDSVKGRFTISRDNAKNTVYLQMNSLKPQDTAVYYCAARNIETAEYTYWGQGTQVTVSS", "reading": "0.766 nM"}
{"binder": "Nb16 (VHH) VHH: DVQLVESGGGLVQAGESLRLSCAASGDMFSSNAMAWYRQAPGKQRELVASITSGGNTNYADSVKGRFTISRDNAKNTVYLQMDSLKPEDTAVYYCNGVAYDYSWGRPRNFWGQGTQVTVSS", "reading": "1.23 nM"}
{"binder": "Nb34 (VHH) VHH: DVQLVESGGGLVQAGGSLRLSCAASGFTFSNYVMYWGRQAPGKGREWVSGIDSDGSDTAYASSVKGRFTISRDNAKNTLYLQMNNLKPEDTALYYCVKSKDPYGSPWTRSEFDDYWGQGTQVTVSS", "reading": "1.12 nM"}
{"binder": "Nb107 (VHH) VHH: HVQLVESGGGLVQAGGSLRLSCAASGRAIGIHRMAWFRQAPGKERAFVAAIQWTGDMPTYADSLKGRFTISADNAKNTVSLQMTSLKPDDTAVYYCAARSATTALYDYWGQGTQVTVSS", "reading": "0.181 nM"}
